# tested.on: 5-hydroxytryptamine receptor 1A (Homo sapiens, UniProt P08908)
# Sequence (P08908 whole entry): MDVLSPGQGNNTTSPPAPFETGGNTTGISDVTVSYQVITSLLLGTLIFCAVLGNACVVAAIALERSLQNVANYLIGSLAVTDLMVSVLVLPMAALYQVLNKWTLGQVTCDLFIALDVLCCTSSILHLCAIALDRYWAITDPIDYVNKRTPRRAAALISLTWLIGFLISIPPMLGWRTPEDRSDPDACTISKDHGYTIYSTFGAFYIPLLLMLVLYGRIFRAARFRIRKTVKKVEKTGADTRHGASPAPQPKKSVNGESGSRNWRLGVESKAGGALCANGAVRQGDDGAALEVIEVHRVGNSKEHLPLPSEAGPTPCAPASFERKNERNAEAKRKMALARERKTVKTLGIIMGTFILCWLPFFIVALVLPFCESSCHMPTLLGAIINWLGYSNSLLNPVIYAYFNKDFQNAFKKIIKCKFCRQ
# protocol.notes: biochemical
# Description: Displacement of [3H]-8-OH-DPAT from human 5-HT1AR expressed in HEK293 cell membranes after 1 hr by microbeta counting method
endpoint.name: log10 of Ki (log10 of the value in nM)
The figures below represent log10 of Ki, where Ki is stated in nM.

Examples from the recorded data:
chemical.structure	log10 of Ki
O=S(=O)(c1ccnc2ccccc12)N1CCCC[C@@H]1CCN1CCN(c2nsc3ccccc23)CC1	1.38
O=S(=O)(c1cccc2ncccc12)N1CCC[C@@H]1CCN1CCN(c2cccc3sccc23)CC1	1.18
O=S(=O)(c1cccc2cnccc12)N1CCC[C@H]1CCN1CCN(c2noc3ccccc23)CC1	1.93
O=S(=O)(c1cncc2ccccc12)N1CCC[C@H]1CCN1CCN(c2nsc3ccccc23)CC1	1.57
O=S(=O)(c1cncc2ccccc12)N1CCC[C@@H]1CCN1CCN(c2cccc3[nH]ccc23)CC1	0.78

stdin: So what's the measured log10 of Ki for this one? O=S(=O)(c1cccc2ncccc12)N1CCC[C@@H]1CCN1CCN(c2nsc3ccccc23)CC1
stdout: 1.38

stdin: I'd like to know its log10 of Ki. The compound in question is O=S(=O)(c1cccc2ncccc12)N1CCC[C@H]1CCN1CCN(c2cccc3c2OCCO3)CC1
stdout: 0.78

stdin: For the compound O=S(=O)(c1cncc2ccccc12)N1CCC[C@@H]1CCN1CC=C(c2c[nH]c3ccc(Cl)cc23)CC1 , what log10 of Ki is on record?
stdout: 2.17

stdin: Field request: log10 of Ki | item: O=S(=O)(c1cccc2cnccc12)N1CCC[C@@H]1CCN1CCN(c2cccc3sccc23)CC1
stdout: 1.11

stdin: For the compound shown here, O=S(=O)(c1cccc2cnccc12)N1CCC[C@H]1CCN1CCN(c2cccc3sccc23)CC1 , give the reported log10 of Ki.
stdout: 1.00

* * *

# tested.on: 5-hydroxytryptamine receptor 2A (Homo sapiens, UniProt P28223)
# Sequence (P28223 whole entry): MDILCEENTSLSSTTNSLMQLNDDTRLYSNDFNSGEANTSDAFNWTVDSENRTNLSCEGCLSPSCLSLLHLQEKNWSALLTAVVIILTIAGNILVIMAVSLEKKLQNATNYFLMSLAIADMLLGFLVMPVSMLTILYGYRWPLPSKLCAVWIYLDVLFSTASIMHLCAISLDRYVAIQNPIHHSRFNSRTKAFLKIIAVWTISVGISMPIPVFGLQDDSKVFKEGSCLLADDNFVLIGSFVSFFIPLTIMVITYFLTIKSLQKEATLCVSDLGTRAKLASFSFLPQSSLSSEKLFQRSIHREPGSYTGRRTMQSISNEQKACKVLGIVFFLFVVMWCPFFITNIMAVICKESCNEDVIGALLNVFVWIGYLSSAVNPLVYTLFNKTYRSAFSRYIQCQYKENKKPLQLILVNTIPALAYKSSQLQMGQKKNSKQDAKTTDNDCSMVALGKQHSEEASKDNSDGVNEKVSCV
# protocol.notes: biochemical
# Format: cell-based, CHO-K1
endpoint.name: pKi
pKi field: float, defined as -log10 of concentration (mol/L).

Example entries begin here.
chemical.structure	tested.on	pKi
O=S(=O)(c1cncc2ccccc12)N1CC[C@@H]1CCN1CCN(c2cccc3sccc23)CC1	5-hydroxytryptamine receptor 2A (Homo sapiens, UniProt P28223)	7.80
O=c1[nH]c2c(N3CCN(CC[C@@H]4CCCN4S(=O)(=O)c4cccc5ncccc45)CC3)cccc2o1	5-hydroxytryptamine receptor 2A (Homo sapiens, UniProt P28223)	5.61
O=S(=O)(c1cncc2ccccc12)N1CCCC[C@@H]1CCN1CCN(c2cccc3sccc23)CC1	5-hydroxytryptamine receptor 2A (Homo sapiens, UniProt P28223)	7.19
O=S(=O)(c1cncc2ccccc12)N1CCC[C@H]1CCN1CCN(c2cccc3sccc23)CC1	5-hydroxytryptamine receptor 2A (Homo sapiens, UniProt P28223)	8.05
O=S(=O)(c1cncc2ccccc12)N1CCC[C@@H]1CCN1CC=C(c2c[nH]c3ccc(Cl)cc23)CC1	5-hydroxytryptamine receptor 2A (Homo sapiens, UniProt P28223)	5.72
O=S(=O)(c1cccc2cnccc12)N1CCC[C@@H]1CCN1CCN(c2nsc3ccccc23)CC1	5-hydroxytryptamine receptor 2A (Homo sapiens, UniProt P28223)	7.82
O=S(=O)(c1cccc2cnccc12)N1CCC[C@H]1CCN1CCN(c2cccc3sccc23)CC1	5-hydroxytryptamine receptor 2A (Homo sapiens, UniProt P28223)	8.05
O=S(=O)(c1cccc2ncccc12)N1CCC[C@@H]1CCN1CCN(c2nsc3ccccc23)CC1	5-hydroxytryptamine receptor 2A (Homo sapiens, UniProt P28223)	7.68

Now turn to the next molecule.
stdin: Consider the molecule O=S(=O)(c1cncc2ccccc12)N1CCCCC[C@H]1CCN1CCN(c2cccc3sccc23)CC1 and give its measured pKi.
stdout: 7.54

* * *

# protocol.notes: Toxicity in ip dosed Sprague-Dawley rat assessed as sedation pretreated for 60 mins followed by PCP addition measured for 30 mins starting 15 min after rat reintroduction to auto-tracks
# Format: organism-based
# condition.info: in vivo
endpoint.name: MTD at 0.5 h
Answers without a unit are incomplete; give the number and then its unit.

Below, each entry is followed by its recorded MTD at 0.5 h result.
chemical.structure	reported.value
CN1CCN(C2=Nc3cc(Cl)ccc3Nc3ccccc32)CC1	3 mg/kg
O=S(=O)(c1cncc2ccccc12)N1CCC[C@H]1CCN1CCN(c2nsc3ccccc23)CC1	3 mg/kg
Cc1cc2c(s1)Nc1ccccc1N=C2N1CCN(C)CC1	1.25 mg/kg

stdin: I have this compound here, O=C1Cc2cc(CCN3CCN(c4nsc5ccccc45)CC3)c(Cl)cc2N1 , and I need its recorded MTD at 0.5 h.
stdout: 3 mg/kg

stdin: # get_value(readout='MTD at 0.5 h', item= O=S(=O)(c1cncc2ccccc12)N1CCC[C@@H]1CCN1CCN(c2nsc3ccccc23)CC1 )
stdout: 2 mg/kg

* * *

We begin with a simple list: items and their reported pKi.
# tested.on: 5-hydroxytryptamine receptor 2A (Homo sapiens)
# protocol.notes: biochemical
# Assay type: cell-based, CHO-K1
Scale: negative log10 of molar concentration, which is what pKi denotes.

chemical.structure	pKi
O=S(=O)(c1cncc2ccccc12)N1CCC[C@@H]1CCN1CCN(c2cccc3[nH]ccc23)CC1	7.12
O=S(=O)(c1cccc2ncccc12)N1CC[C@@H]1CCN1CCN(c2nsc3ccccc23)CC1	7.52

Consider the record given below.
stdin: What measured pKi is associated with O=S(=O)(c1cncc2ccccc12)N1CCC[C@H]1CCN1CCN(c2cccc3c2OCCO3)CC1 on 5-hydroxytryptamine receptor 2A (Homo sapiens)?
stdout: 7.04
